tested on: XF 498 CNS; assay: NCI tumour cell line growth inhibition, 48 h
Would you kindly list TGI for each of these compounds?

Look up and state reported TGI for "CN(C)c1n/c(=N/c2ncn[nH]2)ss1"
> 100 µM

Look up and state reported TGI for Nc1nc(N)c2nc(CNc3ccc(C(=O)NC(CCCNC(=O)c4ccccc4C(=O)O)C(=O)O)cc3)cnc2n1 (stereo not drawn)
> 100 µM

Look up and state reported TGI for "CCCCCCCCCCCCN(O)C(=O)c1ccccc1"
> 100 µM

Look up and state reported TGI for CCOC(=O)C1=C(C)N(NC(N)=O)C2(O)CCCC(=O)C12C (stereo not drawn)
> 100 µM

Look up and state reported TGI for "CSc1nc2[nH]c(=O)c(C)nc2c(=O)[nH]1"
> 100 µM

Look up and state reported TGI for "COc1ccc(CNc2nc3c(NC(C)=O)cc(C(F)(F)F)cc3nc2-c2ccccc2)cc1OC"
> 100 µM

Look up and state reported TGI for COC(OC)[C@@H](C)[C@H](O)[C@](C)(O)C1OC(C)(C)OC(C(C)C=C(C)C)C1C (stereo partly drawn)
> 100 µM

Look up and state reported TGI for "O=c1cc(-c2ccc(Cl)cc2)oc2cc(OCCCOc3ccc4c(=O)cc(-c5ccc(Cl)cc5)oc4c3)ccc12"
> 100 µM

Look up and state reported TGI for "COc1ccc(C(=O)/C=C/c2ccc(OCC(=O)N3CCN(c4ccccc4)CC3)cc2)cc1"
> 93.9 µM

Look up and state reported TGI for "CC(C)C(/C=C/c1ccc(Br)cc1)=N\NC(N)=O"
> 100 µM

Look up and state reported TGI for "O=C(O)C12CCCC(CCC1)C2"
> 100 µM

Look up and state reported TGI for "CCCCS(=O)(=O)Nc1ccc(Nc2c3ccccc3nc3ccccc23)c(OC)c1"
10.5 µM

Look up and state reported TGI for OC(c1ccccn1)C1CNc2ccccc21 (stereo not drawn)
> 100 µM

----------
test system: NCI-H522 lung; assay: NCI tumour cell line growth inhibition, 48 h
measurement-name: TGI (µM)
Please reply with the bare figure in µM and do not write the unit itself.

Look up and state reported TGI for "CCOC(=O)c1cc2c(n1Cc1ccccc1)-c1oncc1CC2"
17.5

Look up and state reported TGI for "C=CC[C@@]1(C)CCCCCCCCC[C@@](C)(CC=C)C1=O"
59.4

Look up and state reported TGI for "Cc1ccc(/C=C/C(=O)c2cc(CN(C)C)c(O)c(CN(C)C)c2)cc1"
31.7

Look up and state reported TGI for "C/C=C/C(=O)N1C(=O)OC[C@@H]1c1ccccc1"
39.1

Look up and state reported TGI for "C#Cc1cccc(Nc2nc3ccc([N+](=O)[O-])cc3nc2Nc2cccc(C#C)c2)c1"
0.609

----------
Would you kindly list TGI for each of these molecules?
tested on: CCRF-CEM leukemia; experiment: NCI tumour cell line growth inhibition, 48 h

Look up and state reported TGI for "C[C@]12[C@@H]3CC[C@H]1[C@@H](OC(=O)Nc1cc([N+](=O)[O-])cc([N+](=O)[O-])c1)C(=O)N2CC3"
> 100 µM

Look up and state reported TGI for "O=C(Nc1ccccc1F)c1cc2ccc(O)cc2oc1=Nc1cccc(C(F)(F)F)c1"
4.79 µM

Look up and state reported TGI for "COC(=O)[C@@H]1C[C@@H]2c3ccccc3N(S(=O)(=O)c3ccccc3)[C@@H]2N1C(=O)OC"
> 100 µM

Look up and state reported TGI for "Cn1c(=S)c2[nH]c(SCCN3CCCC3)nc2n(C)c1=O"
> 100 µM

Look up and state reported TGI for "Cc1cc(C)nc(SC2=C(Nc3cccc(Cl)c3C)C(=O)N(Cc3ccccc3)C2=O)n1"
> 160 µM

Look up and state reported TGI for "COc1ccc(-c2c(-c3cc(OC)c4c(c3)OCO4)noc2N)cc1"
24.9 µM

Look up and state reported TGI for "CC(=O)[O][Hg][c]1ccccc1"
0.494 µM

Look up and state reported TGI for "Cc1nc2n(c(=O)c1CCN1CCC(c3noc4cc(F)ccc34)CC1)CCCC2"
> 50 µM

Look up and state reported TGI for COc1ccc2c(c1)CCC1=CC3(CCC12C)SCCS3 (stereo unspecified)
> 10 µM

Look up and state reported TGI for "CCOC(=O)/C=C1\c2ccccc2C(=O)N1CC(=O)OCC"
> 100 µM

Look up and state reported TGI for "Cc1cc(C)c(S(=O)(=O)ONC(=O)OC(C)(C)C)c(C)c1"
> 100 µM

Look up and state reported TGI for "O=C(OCc1ccc2c(Cl)cc(Cl)c(O)c2n1)c1cc2ccccc2[nH]1"
1.93 µM

Look up and state reported TGI for "Cn1c2c(c3ccccc31)CCN(CCCCN1CCN(c3cccc(Cl)c3)CC1)C2=O"
> 100 µM

Look up and state reported TGI for "CN(CCCNC(=O)c1nn(-c2ccc(Cl)cc2Cl)c2c1ccc1ccccc12)CCCNC(=O)c1nn(-c2ccc(Cl)cc2Cl)c2c1ccc1ccccc12"
5.7 µM

Look up and state reported TGI for NC(N)=NCCCC(NC(=O)OCCCCCCn1ccc(N)nc1=O)C(=O)O (stereo unspecified)
> 100 µM

Look up and state reported TGI for "COc1cc(/C=C/c2cc(/C=C/c3ccc(O)c(OC)c3)oc(=O)c2)ccc1O"
> 26.1 µM

Look up and state reported TGI for "O=[N+]([O-])/C(C(Cl)=C(Cl)Cl)=C(/Sc1ccccc1)N1CCCCC1"
> 100 µM

Look up and state reported TGI for "NC(=Nc1ccc(O)cc1)S(=O)O"
> 100 µM

Look up and state reported TGI for "c1ccc(-c2nnc(-c3nsc4ccccc34)o2)cc1"
> 100 µM

Look up and state reported TGI for "Cc1c(C)c(S(=O)(=O)N(CCCN)OCCCN)c(C)c2c1OC(C)(C)C2"
90 µM

Look up and state reported TGI for "O=C(O)c1ccccc1/C=N/NC1=NCCCCN1"
> 100 µM

----------
test system: A549 NSCLC; assay: NCI tumour cell line growth inhibition, 48 h
measurement-name: TGI (µM)
Please reply with the bare figure in µM and do not write the unit itself.

Look up and state reported TGI for CC1=C[S+](c2ccccc2)c2cccc3cc4ccccc4c1c23 (stereo not given)
3.59

Look up and state reported TGI for "COc1cnc2c(c1)C(=O)c1c-2n(CCCN2CCCC2)c(=O)c2cc(F)ccc12"
0.351

Look up and state reported TGI for "C/C(Cc1ccc(Cl)cc1)=C(/c1ccc(Cl)cc1)c1ccc(OCCN(C)C)cc1"
10.3

Look up and state reported TGI for "CCCCCCCC(=O)SCC/C=C/[C@@H]1CC(=O)NCc2nc(co2)C2=N[C@@](C)(CS2)C(=O)N[C@@H](C(C)C)C(=O)O1"
1.91

Look up and state reported TGI for CCCCCCCCCCCCOC1C(CNC(=O)C2OC3OC(C)(C)OC3C2NC(=O)CN2CCCCCC2)OC2OC(C)(C)OC21 (stereo not given)
17.8

Look up and state reported TGI for "O=C(Oc1ccccc1Cl)c1ccccc1Nc1ccnc(C(F)(F)F)c1"
21.5

Look up and state reported TGI for COc1cc([C@@H]2c3cc4c(cc3[C@@H](NC(=O)c3cccc(F)c3)C3COC(=O)[C@@H]32)OCO4)cc(OC)c1O (stereo not given in full)
2.62

Look up and state reported TGI for "COc1cc2nc3cc([N+](=O)[O-])ccc3c(NCCCNCC(C)(C)O)c2cc1OC"
1.17

----------
tested on: K-562 leukemia; assay: NCI tumour cell line growth inhibition, 48 h; in the data active = GI50 below about 0.43 µM; inactive = the rest
Outcome (select one): active, inactive

Hi team, can someone confirm the assay call for "C=C1C(=O)O[C@H]2[C@H]1CC/C(COC(=O)c1ccc(C#N)cc1)=C\CC[C@@]1(C)O[C@@H]21" ?
inactive

Hi team, can someone confirm the assay call for "CN(CCCl)c1ccc(/C=C/C2=[N+](C)c3ccccc3C2(C)C)cc1" ?
inactive

Hi team, can someone confirm the assay call for "O=C1/C(=C/c2ccccc2)CN(C(=O)OCc2ccccc2)C/C1=C\c1ccccc1" ?
inactive

Hi team, can someone confirm the assay call for "COc1ccc(-c2cc(-c3cc(OC)c(OC)c(OC)c3)c(C#N)c(N3CCOCC3)n2)cc1O" ?
inactive

Hi team, can someone confirm the assay call for "COc1ccc(-c2ccc(/C=N/n3c(C)nn(CN4CCN(C)CC4)c3=S)o2)c([N+](=O)[O-])c1" ?
inactive

Hi team, can someone confirm the assay call for "O=C(OCc1ccc2c(Cl)cc(Cl)c(O)c2n1)c1cc2ccccc2[nH]1" ?
active

Hi team, can someone confirm the assay call for O=C(O)C1(Cc2cccc(Nc3nccs3)n2)CCC(Oc2cccc(Cl)c2F)CC1 (centres undefined) ?
inactive

Hi team, can someone confirm the assay call for "Cc1ccc(S(=O)(=O)Cc2nc(-c3ccc(C(=O)NCc4cccnc4)cc3)oc2C)cc1" ?
active

Hi team, can someone confirm the assay call for O=C1c2c(O)cc(O)cc2OC(c2ccc(O)cc2O)C1O (centres undefined) ?
inactive
